Biological target: T1, RBFOX1 RRM (Homo sapiens, UniProt Q9NWB1 109-208)
T1 sequence: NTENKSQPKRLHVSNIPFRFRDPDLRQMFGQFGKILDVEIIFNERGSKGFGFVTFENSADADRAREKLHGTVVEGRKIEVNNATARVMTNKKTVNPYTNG
Experiment: EMSA; HiTS-Eq, 1 nM pool, 10 min; buffer printed only for the single-RNA assays: 10 mM Tris pH 7.5, 150 mM NaCl, 3.4 mM EDTA, 0.001% NP-40, 30 C
Conditions: tags: His6 N-terminal (pET28a); label: 5' 32P
In all, about 16,000 sequences were measured (“ka relative to ugcaugu”: median about 0.0091, highest 2% from about 0.032 on). Many of the other results were omitted from the sample, so the highest values are more common in it than they were.
Please respond with reported binding signal for every item in the list.

Data request, read-out binding signal, for UUCAUGG (DNA:RNA) RNA: GGGAGACCGGAAUUCAGAUUGUCCUUCAUGGUUAAAUCCCGUCGUAGCCACCA DNA 1: CAATCTGAATTCCGGTCTCCC DNA 2: TGGTGGCTACGACGGGATT
0.00704 KA relative to UGCAUGU

Data request, read-out binding signal, for AGAUGCA (DNA:RNA) RNA: GGGAGACCGGAAUUCAGAUUGUCCAGAUGCAUUAAAUCCCGUCGUAGCCACCA DNA 1: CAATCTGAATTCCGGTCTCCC DNA 2: TGGTGGCTACGACGGGATT
0.0164 KA relative to UGCAUGU

Data request, read-out binding signal, for UUCAUGC (DNA:RNA) RNA: GGGAGACCGGAAUUCAGAUUGUCCUUCAUGCUUAAAUCCCGUCGUAGCCACCA DNA 1: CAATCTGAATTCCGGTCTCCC DNA 2: TGGTGGCTACGACGGGATT
0.0106 KA relative to UGCAUGU

Data request, read-out binding signal, for UGCAUAA (DNA:RNA) RNA: GGGAGACCGGAAUUCAGAUUGUCCUGCAUAAUUAAAUCCCGUCGUAGCCACCA DNA 1: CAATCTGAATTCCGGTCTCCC DNA 2: TGGTGGCTACGACGGGATT
0.00891 KA relative to UGCAUGU
